target: Metabotropic glutamate receptor 8 (Rattus norvegicus) (UniProt P70579); assay: mGluR8 Gi/Go-coupled signaling modulation – cell-based, rat, thallium flux, HTS, primary screen (AID 488969); conditions: HEK293 rat mGluR8, GIRK thallium flux, FluoZin2; at 10 µM; stronger effect = higher value; submaximal glutamate (EC20) added with thallium
Sequence (P70579 whole entry, looked up): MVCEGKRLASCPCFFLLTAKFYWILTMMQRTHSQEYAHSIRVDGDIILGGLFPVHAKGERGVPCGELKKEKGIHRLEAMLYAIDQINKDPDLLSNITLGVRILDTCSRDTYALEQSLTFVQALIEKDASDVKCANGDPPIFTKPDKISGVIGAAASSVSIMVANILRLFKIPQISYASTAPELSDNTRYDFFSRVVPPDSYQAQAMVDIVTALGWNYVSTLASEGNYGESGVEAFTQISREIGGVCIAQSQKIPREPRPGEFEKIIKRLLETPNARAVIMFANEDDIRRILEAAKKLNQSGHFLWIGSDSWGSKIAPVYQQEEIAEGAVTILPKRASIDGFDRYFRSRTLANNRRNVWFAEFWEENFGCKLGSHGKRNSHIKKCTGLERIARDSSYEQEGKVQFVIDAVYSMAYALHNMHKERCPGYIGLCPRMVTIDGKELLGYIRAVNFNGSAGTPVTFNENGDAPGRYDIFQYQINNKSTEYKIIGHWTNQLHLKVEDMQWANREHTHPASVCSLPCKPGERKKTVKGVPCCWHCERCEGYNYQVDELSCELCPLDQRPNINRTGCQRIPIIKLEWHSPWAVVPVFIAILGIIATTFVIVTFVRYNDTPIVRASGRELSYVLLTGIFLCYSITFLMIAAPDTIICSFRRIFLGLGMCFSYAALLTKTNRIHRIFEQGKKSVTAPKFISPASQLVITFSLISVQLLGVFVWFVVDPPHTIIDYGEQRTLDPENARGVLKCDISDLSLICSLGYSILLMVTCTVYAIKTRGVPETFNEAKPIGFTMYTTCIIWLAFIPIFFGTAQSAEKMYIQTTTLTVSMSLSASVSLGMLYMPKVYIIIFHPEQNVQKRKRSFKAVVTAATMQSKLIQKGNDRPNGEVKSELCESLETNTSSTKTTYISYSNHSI
Whole data set: some 110,000 compounds, median “z-score” near -0.1, cut for the highest 2% near 2. Only a selection was taken, and the highest values are over-represented in it overall.
Use 0.1 as the dividing line for z-score, with the line itself on the rule met side and lower values as rule not met.

> print(dat)
                              record.smiles  answer.label
1    O=C1/C(=C/c2cccnc2)SC(=S)N1c1ccc(F)cc1  rule not met
2   Cc1cc(C)n(-c2nc3ccccc3nc2NCCc2ccccc2)n1  rule not met
3                O=C(O)c1c(F)c(F)cc2ccccc12      rule met
4    CCCc1nc2oc3c(NCCN(C)C)ncnc3c2c2c1CCCC2      rule met
5  Cc1nnc(NC(=O)c2cccc(S(=O)(=O)N3CCc4ccccc43)c2)s1      rule met

----------
molecular target: Metabotropic glutamate receptor 8 (Rattus norvegicus) (UniProt P70579); assay: mGluR8 Gi/Go-coupled signaling modulation – cell-based, rat, thallium flux, HTS, primary screen (AID 488969); conditions: HEK293 rat mGluR8, GIRK (G protein-gated inwardly rectifying potassium channel) thallium flux, FluoZin2; at 10 µM; stronger effect = higher value; submaximal glutamate (EC20) added with thallium
In all, about 110,000 compounds were measured (“z-score”: median about -0.1, highest 2% from about 2 on). The sample as a whole holds a higher share of the highest values than the screen did.
Measured z-score of individual entries
PROPERTY_NAME: z-score

> print(dat)
                                    compound  property.name      val
 1  Cc1cc(C)nc(/N=C(\N)Nc2ccc([N+](=O)[O-])cc2)n1        z-score   -0.477
 2  Cc1nn(-c2ccc(F)cc2)c(Cl)c1/C=N/NC(=O)c1cccc(S(=O)(=O)N2CCCC2)c1        z-score   -0.115
 3  Cc1cccc(C(=O)Oc2csc(=S)n2C(=O)c2cccc(C)c2)c1        z-score    0.282
 4   NNC(=O)C=C1CCN(c2ncc(C(F)(F)F)cc2Cl)CC1        z-score  0.00385
 5  CCC(=O)Nc1ccc(C(=O)CSc2nnc(CNc3ccc(Cl)cc3)o2)cc1OC        z-score    -0.38
 6  Cn1c(C(C(=O)NCC2CCCO2)N(C(=O)Cn2nnc3ccccc32)C2CCCCC2)nc2ccccc21 (stereo not given)        z-score  -0.0111
 7  CN(C)/C=C/C(=O)/C=C/c1cn(-c2ncc(C(F)(F)F)cc2Cl)c2ccccc12        z-score     5.57
 8  CC(=O)C1=C(c2ccccc2)NC(=O)NC1c1ccccc1OCC#N (stereo not given)        z-score     1.96
 9          O=C(N/N=C/c1ccccc1Cl)c1cccc(F)c1        z-score   -0.342
10       CC1(C)Cc2ccccc2-c2nnc(-c3cccnc3)n21        z-score    0.241
11        N#Cc1cc([N+](=O)[O-])cnc1Nc1ccccc1        z-score   -0.521
12  O=c1[nH]cnc2c1nc(SCc1ccccc1)n2C1OC(CO)C(O)C1O (stereo not given)        z-score     1.45
13  C/C(=N\NC(=O)OC(C)(C)C)c1cccc([N+](=O)[O-])c1        z-score   -0.272
14  Cc1c(C(=O)NCCc2ccc3c(c2)OCCO3)oc2ccccc12        z-score    -0.63
15  COc1ccc(-c2nnc(SC(C)C(=O)NNC(=O)c3ccc(C)cc3)o2)cc1 (stereo not given)        z-score      2.1
16             CN1CCN(/C=N/c2c(C#N)cnn2C)CC1        z-score    0.146
17       COc1ccc(CNC(=O)CSc2ccc(Br)cc2)cc1OC        z-score    0.192
18  COc1cc(NC(=O)C(=O)NNC(=O)C2CCCCC2)c(OC)cc1Cl        z-score     3.98
19  COc1ccc(-c2nnc(SCC(=O)Oc3ccc(C)cc3)o2)cc1        z-score   -0.915
20  CC(=O)/C=C\c1cn(-c2ncc(C(F)(F)F)cc2Cl)c2ccccc12        z-score   -0.119
21  CCS(=O)(=O)Nc1ccc(-c2nnc(SCC(=O)c3ccc(NC(C)=O)c(OC)c3)o2)cc1        z-score     4.64
22      O=C(N/N=C/c1c(Cl)cccc1Cl)c1ccc(F)cc1        z-score   -0.476
23       O=C(Cn1cc(/C=N/O)c2ccccc21)N1CCOCC1        z-score   -0.312
24  Cc1cc(N2CCC(C(=O)NC3CC3)CC2)nc(-c2ccccc2)n1        z-score     1.41
25        CNc1nc2ccccc2n1/N=C/c1cccc(OC)c1OC        z-score    -1.51
26  Cc1ccc(S(=O)(=O)Cc2ccc(C(=O)NCc3ccc4c(c3)OCO4)o2)cc1        z-score   -0.326
27  Cc1cccc(N(C(=O)c2sc(C)nc2C)C(C(=O)NCc2ccco2)c2ccccc2)c1 (stereo not given)        z-score    -1.18
28         Cc1cccc2sc(NC(=O)CSCc3ccccc3)nc12        z-score    0.801
29  Cc1ccc(-n2nnnc2SCC(=O)c2ccc3c(c2)NC(=O)CO3)c(C)c1        z-score  -0.0959
30  C=CCC(NCc1ccccc1)c1ccc(C)o1 (stereo not given)        z-score    0.143
31  CC1(C)Cc2c(ccc3ccccc23)C(NNC(=O)c2cccnc2)=N1        z-score    0.408
32            COc1ccc(OC)c(NC(=O)C2CCCCC2)c1        z-score   -0.385
33  Cc1cccc2sc(NC(=O)CN3C(=O)c4ccccc4C3=O)nc12        z-score    -0.16
34  COc1ccc(-c2nnc(SC(C)C(=O)Nc3cccc(Cl)c3)o2)cc1 (stereo not given)        z-score   -0.517
35            O=C(c1cc2ccccc2c(=O)o1)N1CCCC1        z-score     0.79
36  CN(C)c1ncnc2c1ncn2C1OC(CO)C(O)C1O (stereo not given)        z-score   -0.162
37     CC(C)COC(=O)c1cccc2c1-c1ccccc1/C2=N\O        z-score   -0.108
38      COc1ccc(-n2cc(-c3ccccc3)[nH]c2=S)cc1        z-score     11.4
39  CCCOc1ccc(C(=O)Nc2cc(-c3nn4c(C)nnc4s3)ccc2C)cc1        z-score   -0.185
40  COc1cc(NC(=O)C2CCCO2)c(OC)cc1Cl (stereo not given)        z-score   -0.106
41  COc1ccc(S(=O)(=O)N(C)CC(=O)Nc2ccccc2OC)cc1        z-score   -0.484
42  COc1ccc(C2/C(=C(/O)c3ccccc3)C(=O)C(=O)N2CO)cc1 (stereo not given)        z-score    0.305
43  O=C(COC(=O)Cn1cnc2ccccc2c1=O)Nc1ccc(Cl)c(C(F)(F)F)c1        z-score    -0.01
44  O=C(O)/C=C/c1cn(-c2ncc(C(F)(F)F)cc2Cl)c2ccccc12        z-score  -0.0759
45  CCn1c(SCC(=O)c2ccc(NC(C)=O)c(OC)c2)nnc1-c1ccc(NS(C)(=O)=O)cc1        z-score  -0.0548
